Test: NCI Yeast Anticancer Drug Screen. Data for the rad50 strain (AID 155);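 also: 0% = growth of vehicle-only cultures of the same strain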
Conditions: S. cerevisiae rad50 strain growth inhibition; at 50.0 µM; hits give high values
This is part of a sample that, as a whole, favours compounds with a hit. Of some 79,000 tested, about 15% had one in any assay.

{"Compound": "CCOC(=O)Nc1nc2ccccc2n1CN1CCN(c2ccccc2)CC1", "growth inhibition, %": 8.4}
{"Compound": "COc1cc2c(c(OC)c1OC)-c1ccc(SCC3CCC4CC3C4(C)C)c(=O)cc1C(NC(C)=O)CC2 (stereo not given)", "growth inhibition, %": 97.5}
{"Compound": "CC1CC(C)NC(C)C1 (stereo not given)", "growth inhibition, %": -17.1}
{"Compound": "CCC(=O)/C=C/c1ccc(Cl)cc1", "growth inhibition, %": 10.7}
{"Compound": "O=C1C2CSCN2C(=O)C2CSCN12 (stereo not given)", "growth inhibition, %": 5}
{"Compound": "O=C(NCCN1CCCCC1)c1ccc(Br)cc1", "growth inhibition, %": -15.2}
{"Compound": "O=C(COc1ccc(Cl)c(Cl)c1)Nc1ccc(C(=O)CCl)cc1", "growth inhibition, %": 6}
{"Compound": "CCOC(=O)c1ccc(NC(=O)/C=C/C(=O)O)cc1", "growth inhibition, %": -20.2}
{"Compound": "CCCCc1ccc2nc3cc4ccccc4cc3nc2c1", "growth inhibition, %": 12.8}
{"Compound": "COC(=O)C([O][Ge]([CH3])([CH3])[CH3])c1ccccc1 (stereo not given)", "growth inhibition, %": 8.75}
{"Compound": "CC(=O)OCCSSCCOC(C)=O", "growth inhibition, %": -4.9}
{"Compound": "O=C(c1nc2ccc([N+](=O)[O-])cc2[nH]c1=O)C(O)c1ccc([N+](=O)[O-])cc1 (stereo not given)", "growth inhibition, %": -1.9}
{"Compound": "OCc1ccccc1O", "growth inhibition, %": -1.7}
{"Compound": "O=C(O)C1C2C=CC(O2)C1C(=O)Nc1ccccc1 (stereo not given)", "growth inhibition, %": 13.7}
{"Compound": "CCOC(=O)c1nnc2cc(-c3ccccc3)nn2c1C", "growth inhibition, %": 6.65}
{"Compound": "CC1(O)C2C3C(I)C4C5C3C1C5C42 (stereo not given)", "growth inhibition, %": 22.6}
{"Compound": "Nc1ccc2c(c1)C(=O)c1cc(C(=O)O)ccc1-2", "growth inhibition, %": 21.2}
{"Compound": "OC1CN(c2ccccc2)CC(O)CN(c2ccccc2)C1 (stereo not given)", "growth inhibition, %": -8.1}
{"Compound": "Cc1ccc(SC(F)(F)C(F)C(F)(F)F)cc1 (stereo not given)", "growth inhibition, %": -4.65}
{"Compound": "CCCCCCCCCCCCCCCCOc1ccc(S(=O)(=O)N/N=c2/sc(-c3ccccc3Cl)nn2C)cc1C(=O)O", "growth inhibition, %": -18.6}
{"Compound": "COc1ccc(CCC2c3cc(OC)c(OC)cc3CCN2C)cc1OC (stereo not given)", "growth inhibition, %": -41.5}
{"Compound": "O=S(=O)(Nc1nc2ccccc2nc1Nc1cccc2ccccc12)c1ccccc1", "growth inhibition, %": -1.3}
{"Compound": "O=C1CN(/C=C(\\c2ccccc2)S(=O)Cc2ccccc2)C(=S)N1 (stereo not given)", "growth inhibition, %": -19.9}
{"Compound": "Nc1ccc(N=Nc2ccc(OCCN(CCO)CCO)cc2)c(N)n1", "growth inhibition, %": 23.8}
{"Compound": "CCOP(C)(=O)C(Cc1c[nH]c2ccccc12)C(=O)O (stereo not given)", "growth inhibition, %": -20.7}
